// provenance: ChEMBL document CHEMBL1141362

# test details: Metabolic stability in rat liver microsomes after 30 mins
# Assay type: ADME, Microsome
# measurement conditions: read-out: Stability
measurement type: remaining at 0.5 h (%)

[I] CSc1nccc(-c2ccc(S(=O)(=O)Nc3cc(Br)ccc3C(=O)N3CCCCC3)s2)n1
[II] O=C(c1ccc(Br)cc1NS(=O)(=O)c1ccc(-c2cc(C(F)(F)F)on2)s1)N1CCCCC1
[III] O=C(NCc1ccc(S(=O)(=O)Nc2cc(Br)ccc2C(=O)N2CCCCC2)s1)c1ccccc1
[IV] O=C(c1ccc(Br)cc1NS(=O)(=O)c1ccc2c(c1)OCCCO2)N1CCCCC1
[V] O=C(c1ccc(Br)cc1NS(=O)(=O)c1csc2ccccc12)N1CCCCC1
[ask] Order these by remaining at 0.5 h, descending, and give the full ranking. A ranking is expressed here by listing the labels in the requested order.
[reply] II, I, V, IV, III

[A] O=C(c1ccc(Br)cc1NS(=O)(=O)c1ccc(C(F)(F)F)cc1Cl)N1CCCCC1
[B] COC(=O)c1csc(S(=O)(=O)Nc2cc(Br)ccc2C(=O)N2CCCCC2)c1OC
[ask] Could you check which of A and B has a smaller value for remaining at 0.5 h? Field: selected label. Fill in the label of the entry you choose.
[reply] B

###

# test details: Metabolic stability in human liver microsomes after 30 mins
# Format: ADME, Microsome
# measurement conditions: read-out: Stability
measurement type: remaining at 0.5 h (%)

Example cases with answers are listed next.
O=C(c1ccc(Br)cc1NS(=O)(=O)c1c(Cl)nc2sccn12)N1CCCCC1 :: 7
O=C(c1ccc(Br)cc1NS(=O)(=O)c1cccc2nsnc12)N1CCCCC1 :: 0
N#Cc1cccc(S(=O)(=O)Nc2cc(Br)ccc2C(=O)N2CCCCC2)c1 :: 7

[I] Cc1ccc(S(=O)(=O)Nc2cc(Br)ccc2C(=O)N2CCCCC2)cc1[N+](=O)[O-]
[II] Cc1nc(-c2ccc(S(=O)(=O)Nc3cc(Br)ccc3C(=O)N3CCCCC3)s2)cs1
[ask] Would you let me know which has the greater remaining at 0.5 h value, I or II ? Response format: the label of the selected entry.
[reply] II

[I] COC(=O)c1sc(C(F)(F)F)c(-c2ccccc2)c1S(=O)(=O)Nc1cc(Br)ccc1C(=O)N1CCCCC1
[II] O=C(c1ccc(Br)cc1NS(=O)(=O)c1c(F)cccc1F)N1CCCCC1
[ask] Could you check which of I and II has a smaller value for remaining at 0.5 h? Please identify the chosen entry by its label.
[reply] I
(I: 0%, II: 77%)

[1] O=C(c1ccc(Br)cc1NS(=O)(=O)c1ccc2nsnc2c1)N1CCCCC1
[2] CSc1nccc(-c2ccc(S(=O)(=O)Nc3cc(Br)ccc3C(=O)N3CCCCC3)s2)n1
[ask] Hi team, can someone confirm which has the larger remaining at 0.5 h: 1 or 2 ? Thanks. // output: label of the selected item
[reply] 2
(2: 63%, 1: 13%)

###

# experimental target: Gastrin/cholecystokinin type B receptor (Homo sapiens, UniProt P32239)
# Sequence (P32239 whole entry): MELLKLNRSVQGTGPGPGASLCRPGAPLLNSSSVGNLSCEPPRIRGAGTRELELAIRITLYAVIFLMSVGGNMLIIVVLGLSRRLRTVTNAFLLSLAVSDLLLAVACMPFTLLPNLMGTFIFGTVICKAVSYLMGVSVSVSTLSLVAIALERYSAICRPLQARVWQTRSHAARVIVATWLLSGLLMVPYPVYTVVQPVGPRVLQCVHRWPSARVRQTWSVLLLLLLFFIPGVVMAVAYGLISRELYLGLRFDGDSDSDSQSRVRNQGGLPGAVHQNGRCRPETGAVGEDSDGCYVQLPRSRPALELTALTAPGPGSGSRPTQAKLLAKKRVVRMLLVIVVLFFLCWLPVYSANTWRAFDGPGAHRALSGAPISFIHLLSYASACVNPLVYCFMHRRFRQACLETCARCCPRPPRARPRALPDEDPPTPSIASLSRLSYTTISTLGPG
pKi: −log10 of the molar value.
measurement type: pKi

COC(=O)c1c(C)oc(C)c1S(=O)(=O)Nc1cc(Br)ccc1C(=O)N1CCCCC1 :: 6.30
O=C(c1ccc(Br)cc1NS(=O)(=O)c1ccc2nsnc2c1)N1CCCCC1 :: 5.30
O=C(c1ccc(Br)cc1NS(=O)(=O)c1ccc2c(c1)OCCCO2)N1CCCCC1 :: 5.60

[1] COC(=O)c1cc(S(=O)(=O)Nc2cc(Br)ccc2C(=O)N2CCCCC2)oc1C
[2] Cc1c(S(=O)(=O)Nc2cc(Br)ccc2C(=O)N2CCCCC2)cnn1-c1ccccc1
[ask] Two entries are listed, 1 and 2 . Which one carries the higher pKi? I would appreciate it if you answered with the label of your choice.
[reply] 1

[a] CSc1nccc(-c2ccc(S(=O)(=O)Nc3cc(Br)ccc3C(=O)N3CCCCC3)s2)n1
[b] N#Cc1cccc(S(=O)(=O)Nc2cc(Br)ccc2C(=O)N2CCCCC2)c1
[ask] # return whichever of a and b has the smaller pKi Bench note: the answer is the label of the chosen record.
[reply] b
(b: 5.30, a: 5.50)
